Target: Metabotropic glutamate receptor 2 (Homo sapiens)
Sequence (Q14416 19-872 limits assumed): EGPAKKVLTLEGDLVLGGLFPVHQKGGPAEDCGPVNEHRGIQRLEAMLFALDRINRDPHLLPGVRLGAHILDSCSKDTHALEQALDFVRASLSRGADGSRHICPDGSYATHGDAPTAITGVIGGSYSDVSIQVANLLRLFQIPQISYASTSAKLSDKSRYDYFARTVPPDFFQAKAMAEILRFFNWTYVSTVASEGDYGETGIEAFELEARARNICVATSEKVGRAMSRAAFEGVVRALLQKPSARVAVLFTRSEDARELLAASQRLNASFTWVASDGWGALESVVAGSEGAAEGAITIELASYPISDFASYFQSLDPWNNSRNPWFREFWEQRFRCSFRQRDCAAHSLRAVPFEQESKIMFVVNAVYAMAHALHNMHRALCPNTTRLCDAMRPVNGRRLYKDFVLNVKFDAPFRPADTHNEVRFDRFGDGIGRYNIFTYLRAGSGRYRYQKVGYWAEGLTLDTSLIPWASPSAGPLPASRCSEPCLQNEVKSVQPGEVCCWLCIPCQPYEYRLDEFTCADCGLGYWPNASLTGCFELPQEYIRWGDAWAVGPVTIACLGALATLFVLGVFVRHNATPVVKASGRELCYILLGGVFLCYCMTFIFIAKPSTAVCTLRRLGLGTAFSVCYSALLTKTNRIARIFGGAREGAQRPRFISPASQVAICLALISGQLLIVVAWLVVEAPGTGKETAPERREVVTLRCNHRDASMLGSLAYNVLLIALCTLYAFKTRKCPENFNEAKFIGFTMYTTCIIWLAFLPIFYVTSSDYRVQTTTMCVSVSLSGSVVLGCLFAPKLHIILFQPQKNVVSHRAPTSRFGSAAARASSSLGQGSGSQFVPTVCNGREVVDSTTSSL
Experiment: Displacement of [3H]JNJ-46281222 from human metabotropic glutamate receptor 2 expressed in CHOK1 cell membranes assessed as residence time measured every 30 sec for 120 mins by scintillation proximity assay
API: label(entry) gives Met if the entry's TIME is strictly smaller than 0.2 h; on equality or larger values it gives Not met.

{"columns": ["structureString", "studySystem", "cat"],
 "data": [
  ["O[C@H]1CC[C@@H](Oc2ccc(-c3ccn4c(CC(F)(F)F)nnc4c3Cl)cc2Cl)CC1", "Metabotropic glutamate receptor 2 (Homo sapiens)", "Not met"],
  ["Cc1ccc(Oc2ccc(-c3ccn4c(CC5CC5)nnc4c3C(F)(F)F)cc2Cl)c(C)n1", "Metabotropic glutamate receptor 2 (Homo sapiens)", "Not met"],
  ["Cc1ccc(Oc2ccc(-c3ccn4c(CC5CC5)nnc4c3Cl)cc2F)c(C)n1", "Metabotropic glutamate receptor 2 (Homo sapiens)", "Met"],
  ["CC(C)Nc1ccc(-c2ccn3c(CC4CC4)nnc3c2C(F)(F)F)cc1F", "Metabotropic glutamate receptor 2 (Homo sapiens)", "Met"],
  ["CCc1cc(Oc2ccc(-c3ccn4c(CC5CC5)nnc4c3Cl)cc2F)ccn1", "Metabotropic glutamate receptor 2 (Homo sapiens)", "Not met"],
  ["COc1ccc(CNc2ccc(-c3ccn4c(CC5CC5)nnc4c3C(F)(F)F)cc2F)cn1", "Metabotropic glutamate receptor 2 (Homo sapiens)", "Not met"],
  ["COc1ccc(CNc2ccc(-c3ccn4c(CC5CC5)nnc4c3C(F)(F)F)cc2)cn1", "Metabotropic glutamate receptor 2 (Homo sapiens)", "Not met"],
  ["Clc1cc(-c2ccn3c(CC4CC4)nnc3c2Cl)ccc1OC1CCOCC1", "Metabotropic glutamate receptor 2 (Homo sapiens)", "Met"],
  ["O[C@H]1CC[C@H](Nc2ccc(-c3ccn4c(CC5CC5)nnc4c3C(F)(F)F)cc2Cl)CC1", "Metabotropic glutamate receptor 2 (Homo sapiens)", "Not met"]
]}

----------
Target: UniProt:O00222
Sequence (O00222 whole entry): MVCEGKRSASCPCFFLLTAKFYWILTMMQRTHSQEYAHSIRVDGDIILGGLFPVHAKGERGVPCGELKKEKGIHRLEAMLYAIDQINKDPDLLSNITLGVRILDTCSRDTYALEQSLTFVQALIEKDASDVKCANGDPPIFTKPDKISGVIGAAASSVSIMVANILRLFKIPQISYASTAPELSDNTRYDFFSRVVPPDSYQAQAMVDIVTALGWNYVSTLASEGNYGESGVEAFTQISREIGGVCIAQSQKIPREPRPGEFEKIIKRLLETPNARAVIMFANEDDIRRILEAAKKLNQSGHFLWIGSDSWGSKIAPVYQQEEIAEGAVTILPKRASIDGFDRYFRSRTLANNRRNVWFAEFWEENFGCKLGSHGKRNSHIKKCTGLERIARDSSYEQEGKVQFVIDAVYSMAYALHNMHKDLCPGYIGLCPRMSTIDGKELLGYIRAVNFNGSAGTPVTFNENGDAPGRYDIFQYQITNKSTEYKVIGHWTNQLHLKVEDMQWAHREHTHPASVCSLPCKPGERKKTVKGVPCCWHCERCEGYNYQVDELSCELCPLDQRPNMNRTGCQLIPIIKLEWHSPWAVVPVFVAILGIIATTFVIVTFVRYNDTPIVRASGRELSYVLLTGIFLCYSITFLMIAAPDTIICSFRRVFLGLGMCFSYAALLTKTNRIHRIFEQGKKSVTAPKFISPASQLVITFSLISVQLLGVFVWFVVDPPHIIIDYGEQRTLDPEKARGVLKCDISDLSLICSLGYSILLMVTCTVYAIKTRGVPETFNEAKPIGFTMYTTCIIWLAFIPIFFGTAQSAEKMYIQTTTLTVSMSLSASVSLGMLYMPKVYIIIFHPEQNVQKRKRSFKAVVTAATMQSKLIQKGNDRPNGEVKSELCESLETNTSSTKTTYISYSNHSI
Assay: Antagonist activity at human metabotropic glutamate receptor 8 expressed in HEK293 cells assessed as inhibition of glutamate-induced Ca2+ internalization after 1 hr by fluo-4-AM dye based fluorescence assay
Assay type: functional, cell-based
Active and inactive are the calls of the source. The calls are words filed in the database; no cut-off is given here.

{"columns": ["structureString", "inhibition"],
 "data": [
  ["Cc1ccc(Oc2ccc(-c3ccn4c(CC5CC5)nnc4c3Cl)cc2Cl)c(C)n1", "inactive"],
  ["FC(F)(F)c1c(-c2ccc(OC3CCOCC3)c(Cl)c2)ccn2c(CC3CC3)nnc12", "inactive"],
  ["O[C@H]1CC[C@H](Nc2ccc(-c3ccn4c(CC(F)(F)F)nnc4c3Cl)cc2Cl)CC1", "inactive"],
  ["Fc1cc(-c2ccn3c(CC4CC4)nnc3c2Cl)ccc1NC1CC1", "inactive"]
]}

----------
Target: UniProtKB Q14416
Assay: Displacement of [3H]JNJ-46281222 from human metabotropic glutamate receptor 2 expressed in CHOK1 cell membranes assessed as association rate constant measured every 30 sec for 120 mins by scintillation proximity assay

{"columns": ["structureString", "K"],
 "data": [
  ["COc1ccc(CNc2ccc(-c3ccn4c(CC5CC5)nnc4c3Cl)cc2)cn1", "6.2 ×10⁶ /M/min"],
  ["CCOCc1nnc2c(Cl)c(-c3ccc(Oc4ccc(C)nc4C)c(F)c3)ccn12", "3 ×10⁶ /M/min"],
  ["O[C@H]1CC[C@@H](Oc2ccc(-c3ccn4c(CC(F)(F)F)nnc4c3Cl)cc2Cl)CC1", "6.9 ×10⁶ /M/min"],
  ["Cc1ccc(Oc2ccc(-c3ccn4c(CC(F)(F)F)nnc4c3Cl)cc2F)c(C)n1", "2.9 ×10⁷ /M/min"],
  ["Fc1cc(-c2ccn3c(CC4CC4)nnc3c2C(F)(F)F)ccc1Oc1ccnc(C2CC2)c1", "2.2 ×10⁷ /M/min"],
  ["O[C@H]1CC[C@H](Nc2ccc(-c3ccn4c(CC5CC5)nnc4c3Cl)cc2Cl)CC1", "6.7 ×10⁶ /M/min"],
  ["Cc1cc(Oc2ccc(-c3ccn4c(CC5CC5)nnc4c3C(F)(F)F)cc2F)cc(C)n1", "8.3 ×10⁶ /M/min"],
  ["FC(F)(F)c1c(-c2ccc(CNC3CCOCC3)c(Cl)c2)ccn2c(CC3CC3)nnc12", "1.7 ×10⁶ /M/min"],
  ["O[C@H]1CC[C@H](Nc2ccc(-c3ccn4c(CC(F)(F)F)nnc4c3Cl)cc2Cl)CC1", "6.7 ×10⁶ /M/min"]
]}
